# Test system: lambsquarters (Chenopodium album)
# experiment_summary: Test C pre/postemergence
# Assay type: in vivo
# condition_parameters: Preemergence, 31 g ai/ha; scale 0 to 100, 0 no effect, 100 complete control
recorded_endpoint: Plant response rating, Lambsquarters
Write the number on its own, no unit after it.

Recorded Plant response rating, Lambsquarters, per entry:
{"compound": "Nc1nc(C2CC2)nc(C(=O)O)c1Cl [Compound 135]", "result": 70}
{"compound": "COCc1nc(C2CC2)nc(N)c1Br [Compound 11]", "result": 0}
{"compound": "COC(=O)c1nc(C2CC2)nc(N=CN(C)C)c1Br [Compound 19]", "result": 100}
{"compound": "Nc1nc(-c2ccc(Cl)cc2)nc(C(=O)[O-])c1Cl.[Na+] [Compound 117]", "result": 100}
{"compound": "CCCOC(=O)c1nc(C2CC2)nc(N)c1Cl [Compound 75]", "result": 75}

Req: Specify Plant response rating, Lambsquarters for CCCCOC(=O)c1nc(C2CC2)nc(N)c1Br [Compound 16] and stop.
Resp: 95

Req: Specify Plant response rating, Lambsquarters for CCOC(=O)C(Cl)c1nc(C2CC2)nc(N)c1Br (stereo not shown) [Compound 31] and stop.
Resp: 0

* * *

# Test system: corn (Zea mays)
# experiment_summary: Test C pre/postemergence
# Format: in vivo
# condition_parameters: Zea mays, pre-emergence, Preemergence, 250 g ai/ha; scale 0 to 100
Readings of Corn plant response rating (crop injury, 0 = no effect, 100 = complete kill) at 250 g/ha for the listed compounds
Express your answer in %, writing the number without its unit.

Recorded Corn plant response rating (crop injury, 0 = no effect, 100 = complete kill) at 250 g/ha, per entry:
{"mol_smiles": "CNc1nc(C2CC2)nc(C(=O)OC)c1Br", "unit_text": "%", "result": 20}
{"mol_smiles": "Nc1nc(C2CC2)nc(C(=O)OCc2ccccc2)c1Br", "unit_text": "%", "result": 65}
{"mol_smiles": "Nc1nc(C2CC2)nc(C(=O)O)c1Br", "unit_text": "%", "result": 10}

Could you now consider this next compound?
Req: Check corn (Zea mays) data and give Corn plant response rating (crop injury, 0 = no effect, 100 = complete kill) at 250 g/ha for COC(=O)c1nc(C2CC2)nc(N)c1Cl .
Resp: 75

* * *

# Test system: barnyardgrass (Echinochloa crus-galli)
# experiment_summary: Test B flooded paddy test
# Type: in vivo
# condition_parameters: Flood, 1000 g ai/ha; scale 0 (no effect) to 100 (complete control)
Readings of Plant response rating, Barnyardgrass for the listed molecules

{"molecule": "CC=NNc1nc(C2CC2)nc(C(=O)OC)c1Br", "recorded_endpoint": "Plant response rating, Barnyardgrass", "result": 0}
{"molecule": "COC(=O)Cc1nc(C2CC2)nc(N)c1Br", "recorded_endpoint": "Plant response rating, Barnyardgrass", "result": 0}

Req: Specify Plant response rating, Barnyardgrass for CCOC(=O)Cc1nc(-c2ccc(Cl)cc2)nc(N)c1Br and stop.
Resp: 0

Req: Specify Plant response rating, Barnyardgrass for CCOC(=O)C(Cl)c1nc(C2CC2)nc(N)c1Br (stereo not shown) and stop.
Resp: 30

* * *

# System: bermudagrass (Cynodon dactylon)
# experiment_summary: Test C pre/postemergence
# Assay type: in vivo
# condition_parameters: Preemergence, 125 g ai/ha; scale 0 to 100
Readings of Plant response rating, Bermudagrass for the listed compounds

{"mol_smiles": "COC(=O)Cc1nc(C2CC2)nc(N)c1Br", "system_under_test": "bermudagrass (Cynodon dactylon)", "Plant response rating, Bermudagrass": 0}

Req: Check bermudagrass (Cynodon dactylon) data and give Plant response rating, Bermudagrass for Nc1nc(-c2ccc(Cl)cc2)nc(C(=O)[O-])c1Cl.[Na+] .
Resp: 65

Req: Check bermudagrass (Cynodon dactylon) data and give Plant response rating, Bermudagrass for CCCOC(=O)c1nc(C2CC2)nc(N)c1Cl .
Resp: 20

Req: Check bermudagrass (Cynodon dactylon) data and give Plant response rating, Bermudagrass for COCc1nc(C2CC2)nc(N)c1Br .
Resp: 0

Req: Check bermudagrass (Cynodon dactylon) data and give Plant response rating, Bermudagrass for COC(=O)CNc1nc(C2CC2)nc(C(=O)OC)c1Br .
Resp: 0

Req: Check bermudagrass (Cynodon dactylon) data and give Plant response rating, Bermudagrass for Nc1nc(C2CC2)nc(C=NO)c1Br .
Resp: 0

Req: Check bermudagrass (Cynodon dactylon) data and give Plant response rating, Bermudagrass for Nc1nc(C2CC2)nc(C(=O)O)c1Cl .
Resp: 0

Req: Check bermudagrass (Cynodon dactylon) data and give Plant response rating, Bermudagrass for CN(C)N=Cc1nc(C2CC2)nc(N)c1Br .
Resp: 0
